- Test system: HEK-293T
- RUN_DESCRIPTION: Multiplex assay against HEK293T
- Type: toxicity, cell-based
- STUDY_CONDITIONS: human, 12 h, 1 µM, compound concentration 1 uM, replicate 2

MOLECULE | Population Healthy Nuclei (%)
Cl.O=C(O)c1cc(-c2ccc(C3CCNCC3)cc2)c2ccc(-c3ccc(C(F)(F)F)cc3)cc2c1 | 38
COc1ccc(-c2ccc3ncc4c(c3c2)n(-c2ccc(N3CCNCC3)c(C(F)(F)F)c2)c(=O)n4C)cn1.O=C(O)/C=C\C(=O)O | 6
C=CC(=O)Nc1cccc(Oc2nc(Nc3ccc(N4CCN(C)CC4)cc3OC)ncc2Cl)c1 | 70
CC(C)c1noc(N2CCC(COc3ccc(-c4ccc(S(C)(=O)=O)cc4)nc3)CC2)n1 | 50
CNC(=O)Nc1ccc2c(c1)[C@@]1(CC2)OC(=O)N(CC(=O)N(Cc2ccc(F)cc2)[C@@H](C)C(F)(F)F)C1=O | 82
O=C(c1cc2c(cc1F)OC(c1ccc(F)cc1)(c1ccc(Cl)cc1Cl)O2)N1CCOCC1 (configuration not stated) | 35
Cc1c[nH]c2nccc(Oc3c(F)cc(Nc4cc(Cl)nc(N)n4)cc3F)c12 | 54
O=c1[nH]c2ccccc2n1C1CCN(Cc2ccc(-c3[nH]c4cc5ncnc5cc4nc3-c3ccccc3)cc2)CC1 | 89
COc1ccccc1CN[C@H]1C2CCN(CC2)[C@H]1C(c1ccccc1)c1ccccc1 | 54
COC(=O)C1=C(C)NC(C)=C(C(=O)OCCCN2CCC(c3ccccc3)(c3ccccc3)CC2)[C@H]1c1cccc([N+](=O)[O-])c1 | 32
C[C@]12CC[C@@H]3c4ccc(O)cc4CC[C@H]3[C@@H]1CC[C@@H]2O | 42
CNC(=O)Nc1ccc(-c2nc(N3CC4CCC(C3)O4)c3cnn(C4CCC5(CC4)OCCO5)c3n2)cc1 | 26
CC(C)Oc1ccccc1C(=O)Nc1ccccc1C(=O)Nc1cccc(S(=O)(=O)C(F)(F)F)c1 | 37
Cc1ccccc1C(c1ccccc1C)N1C2CCC1CC(O)(c1ccccc1)C2 (configuration not stated) | 39
Cc1nc(N2CC[C@H](O)C2)ncc1-c1cc(C(F)(F)F)cc2[nH]ncc12 | 87
CC(C)CC(=O)Nc1[nH]nc2c1CN(C(=O)C1CCN(C)CC1)C2(C)C | 87
CC1=C(C(=O)Nc2cc3cn[nH]c3cc2F)C(c2ccc(C(F)(F)F)cc2)CC(=O)N1 (configuration not stated) | 46

---

In this section, each of the compounds is paired with its reported Population Fragmented Nuclei (%).
- System: U2OS
- RUN_DESCRIPTION: Multiplex assay against U2OS
- Type: toxicity, cell-based
- STUDY_CONDITIONS: human, 12 h, 1 µM, compound concentration 1 uM, replicate 2
PROPERTY_MEASURED: Population Fragmented Nuclei (%)

SMILES_CODE | MEASURED_NUMBER
C=CC(=O)Nc1cccc(Oc2nc(Nc3ccc(N4CCN(C)CC4)cc3OC)ncc2Cl)c1 | 32
O=c1[nH]c2ccccc2n1C1CCN(Cc2ccc(-c3[nH]c4cc5ncnc5cc4nc3-c3ccccc3)cc2)CC1 | 7
CC(C)OC(=O)N1CCC(Oc2ncnc3c2cnn3-c2ccc(S(C)(=O)=O)cc2F)CC1 | 5
Cc1c[nH]c2nccc(Oc3c(F)cc(Nc4cc(Cl)nc(N)n4)cc3F)c12 | 12
CNC(=O)Nc1ccc(-c2nc(N3CC4CCC(C3)O4)c3cnn(C4CCC5(CC4)OCCO5)c3n2)cc1 | 28
COc1ccc(-c2ccc3ncc4c(c3c2)n(-c2ccc(N3CCNCC3)c(C(F)(F)F)c2)c(=O)n4C)cn1.O=C(O)/C=C\C(=O)O | 24

Sourced from ChEMBL document CHEMBL4689842
